Where do these numbers come from? They come from PubChem BioAssay.

tested on: Sonic hedgehog protein (Shh); assay: Sonic hedgehog microarray binding compounds – biochemical, small-molecule microarray, 635/667 nm fluorescence, primary screen (AID 1151); conditions: 635 nm fluorescence, higher = more signal;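 note: Shh protein binding to compounds spotted on small-molecule microarray slides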
Decide by composite z-score: equal to or exceeding 0.007 means Criterion met, less means Criterion not met.

Cc1ccc(C(C)CC(O)C2C=CC3C(=O)N(Cc4ccccc4)C(=O)C3N2n2cnnc2)o1 (stereo unspecified)	Criterion not met
CCOC(=O)C1=CC[C@@H](c2ccc(N(CC)CC)cc2)N(S(=O)(=O)c2ccc(C)cc2)[C@H]1c1ccc([N+](=O)[O-])cc1	Criterion not met
CC(C)(C)OC(=O)CC[C@]1(C(=O)N2CCCCC2)N=C(c2ccc(OCCCO)cc2)O[C@H]1c1ccccc1CN=[N+]=[N-]	Criterion met

Textbook exercise: given the entry CC(C)c1ccc(NN2C(C(O)c3ccccn3)C=CC3C(=O)N(c4ccccc4)C(=O)C32)cc1 (stereo unspecified) , state whether its composite z-score is greater than or equal to 0.007.
Criterion met

Entry O=C(NCc1ccccc1)[C@]1(Cc2ccccc2)N=C(c2ccc(OCCCO)cc2)O[C@@H]1c1ccccc1 : is its composite z-score no less than 0.007?
Criterion not met

Could you verify whether the entry C#CCOC(=O)N[C@H](C=CCCCC)c1ccccc1 shows composite z-score of no less than 0.007?
Criterion not met

Would you say C=CC[C@]1(C(=O)N(C)C)N=C(c2ccc(OCCCO)cc2)O[C@H]1c1ccccc1 shows composite z-score at minimum 0.007?
Criterion met

Does composite z-score meet or surpass 0.007 for NC(=O)[C@@H]1[C@H]2C(=O)O[C@H](c3ccccc3)[C@H](c3ccccc3)N2[C@H](c2ccccc2OCCO)[C@@]12C(=O)Nc1ccc(C#CCCO)cc12 ?
Criterion not met

Is it the case that COC(=O)c1ccc(OC)c(/C=C\CC(CCc2ccccc2)OC(C)=O)c1 (stereo unspecified) has composite z-score reaching or exceeding 0.007?
Criterion met
